- target: MK2 (Homo sapiens, UniProt P49137)
- Sequence (P49137 whole entry): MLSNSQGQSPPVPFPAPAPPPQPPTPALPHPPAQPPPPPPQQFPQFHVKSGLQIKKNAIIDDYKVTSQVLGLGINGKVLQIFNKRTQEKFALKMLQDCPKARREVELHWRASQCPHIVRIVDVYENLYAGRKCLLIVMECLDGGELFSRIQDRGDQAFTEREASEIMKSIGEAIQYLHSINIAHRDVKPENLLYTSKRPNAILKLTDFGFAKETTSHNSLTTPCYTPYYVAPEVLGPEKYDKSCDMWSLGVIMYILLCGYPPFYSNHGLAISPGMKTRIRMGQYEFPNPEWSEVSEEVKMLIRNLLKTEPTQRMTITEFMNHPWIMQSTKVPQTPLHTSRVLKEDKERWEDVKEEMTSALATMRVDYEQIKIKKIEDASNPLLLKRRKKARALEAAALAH
- testName: MK2 degradation in human SW1353 cells (MSD, 24 h)
- Type: cell-based
- Design: endogenous in cells; host or cells: SW-1353 (ATCC HTB-94)
- runConditions: read-out: MK2 MSD SW1353 degradation 24 h GMean External Abs DC50
measuredQuantity: DC50

- compound: "C[C@@H]1CNc2c(sc3ccc4nc(-c5cccc(N6CCN(CCCc7cccc8c7n(C)c(=O)n8C7CCC(=O)NC7=O)CC6)c5)ccc4c23)C(=O)N1 (some centres unmarked)"
  experimentalValue: "1 to 10 nM"
- compound: "Cn1c(=O)n(C2CCC(=O)NC2=O)c2cccc(CCCCCCN3CC4(CCN(c5ccc6c(c5)Cn5cc(-c7ccc(F)cc7)cc5-c5nccn5-6)C4)C3)c21 (centres unmarked)"
  experimentalValue: "> 100 nM"
- compound: "Cc1nc(N2CCN(CC3CCN(c4ccc5c(c4)n(C)c(=O)n5C4CCC(=O)NC4=O)CC3)CC2)ccc1-c1ccc2c(ccc3sc4c(c32)NC[C@@H](C)NC4=O)n1 (some centres unmarked)"
  experimentalValue: "< 1 nM"
- compound: "C[C@@H]1CNc2c(sc3ccc4nc(-c5ccc(N6CCN(CC7CCN(c8cccc9c8n(C)c(=O)n9C8CCC(=O)NC8=O)CC7)CC6)nc5)ccc4c23)C(=O)N1 (some centres unmarked)"
  experimentalValue: "< 1 nM"
- compound: "Cc1cc(N2CCN(CCCc3ccc4c(c3)n(C)c(=O)n4C3CCC(=O)NC3=O)CC2)ncc1-c1ccc2c(ccc3sc4c(c32)NC[C@@H](C)NC4=O)n1 (some centres unmarked)"
  experimentalValue: "< 1 nM"

Request: Entry under review: COc1ccc2c(c1N1CCC(CN3CCN(c4ccc(-c5ccc6c(ccc7sc8c(c76)NC[C@@H](C)NC8=O)n5)cn4)CC3)CC1)n(C)c(=O)n2C1CCC(=O)NC1=O (some centres unmarked) . Reported DC50?
Response: 1 to 10 nM

Request: Entry under review: C[C@@H]1CN(C)c2c(sc3ccc4nc(-c5ccc(N6CCN(CCCc7ccc8c(c7)n(C)c(=O)n8C7CCC(=O)NC7=O)CC6)cc5)ccc4c23)C(=O)N1 (some centres unmarked) . Reported DC50?
Response: 1 to 10 nM

Request: Entry under review: C[C@@H]1CNc2c(sc3ccc4nc(-c5cccc(C6CCN(CCN7CCC(CCc8cccc9c8n(C)c(=O)n9C8CCC(=O)NC8=O)CC7)CC6)c5)ccc4c23)C(=O)N1 (some centres unmarked) [Compound I-104] . Reported DC50?
Response: 10 to 100 nM

Request: Entry under review: Cc1cc(N2CCN(CC3CN(c4ccc5c(c4)n(C)c(=O)n5C4CCC(=O)NC4=O)C3)CC2)ncc1-c1ccc2c(ccc3sc4c(c32)NC[C@@H](C)NC4=O)n1 (some centres unmarked) . Reported DC50?
Response: < 1 nM

Request: Entry under review: Cn1c(=O)n(C2CCC(=O)NC2=O)c2ccc(N3CCC(CN4CCN(c5cc(C#N)cc(-c6cc(-c7cc8c([nH]7)CCNC8=O)ccn6)c5)CC4)CC3)cc21 (centres unmarked) . Reported DC50?
Response: > 100 nM

Request: Entry under review: C[C@@H]1CNc2c(sc3ccc4nc(-c5ccc(N6CCN(C[C@H]7CCN(c8ccc9c(c8)n(C)c(=O)n9C8CCC(=O)NC8=O)C7)CC6)cc5)ccc4c23)C(=O)N1 (some centres unmarked) . Reported DC50?
Response: < 1 nM
